# System: SW-620
# protocolNotes: NCI tumour cell line growth inhibition, 48 h
Calls of active or inactive are those of the source. Cut-off read from the data, not from the text of the source: active = GI50 up to about 1.1 µM and inactive = higher.
recordedEndpoint: GI50

O=C1CC(O)c2c(Cl)sc(Cl)c21 (stereo not given) ... 3.13 µM (inactive)
COc1ccc(/C(=C/n2ccnc2)C(=O)c2ccc(OC)c(OC)c2)cc1 ... > 100 µM (inactive)
O/N=N/c1ccc(Sc2ccc(/N=N/O)cn2)nc1 ... > 100 µM (inactive)
BrC(=C(c1ccc(OC2CCCCO2)cc1)c1ccc(OC2CCCCO2)cc1)c1ccccc1 (stereo not given) ... > 100 µM (inactive)

Please supply GI50 for each of the following items, keeping them in order.
1. O=C(c1ccccc1)c1ccc(-n2c3ccccc3c3ccc4c(c32)C(=O)C=CC4=O)cc1
2. O=C(Nc1nc2ncn(CCNCc3ccccc3)c2c(=O)[nH]1)c1ccccc1
3. O=C1CN(C(=O)c2ccccc2)Cc2[nH]c3ccccc3c21
4. Cc1c(CCN=P(c2ccccc2)(c2ccccc2)c2ccccc2)c(=O)n2c([nH]c3ccccc32)c1C#N

## Result
3.88 µM (inactive)
> 100 µM (inactive)
> 100 µM (inactive)
> 10 µM (inactive)

Please supply GI50 for each of the following items, keeping them in order.
1. Cc1ccc(S(=O)(=O)Oc2nc3ccccc3nc2N(S(=O)(=O)c2ccc(C)cc2)S(=O)(=O)c2ccc(C)cc2)cc1
2. O=C(Nc1ccccc1)N1N=C(c2ccccc2)C1c1ccccc1 (stereo not given)

## Result
1: 34.8 µM (inactive); 2: 35.8 µM (inactive)

----------
# Test system: OVCAR-8
# protocolNotes: NCI tumour cell line growth inhibition, 48 h
Calls of active or inactive are those of the source. No stated cut-off is given here; in the data, active = GI50 up to about 1.1 µM and inactive = higher.
Write down the outcome that applies. Available outcomes: 1 for active, -1 for inactive

C[C@]12CC/C(=N\OCCN3CCCCC3)C=C1CCC1C2CC[C@@]2(C)C1CC[C@]2(C)O (some centres not stated) ... -1
N/C(=N\O)N/N=C/c1ccc(O)c(O)c1 ... -1
CC(=N\N)/C(C)=N/N=C(C)/C(C)=N/N=C(C)/C(C)=N/N=C(C)/C(C)=N/N ... -1
C(CCC[Te][Te]CCCCCCOC1CCCCO1)CCOC1CCCCO1 (configuration not stated) ... -1
CO/N=C1/c2sccc2[C@H](NC(=O)CNC(=O)OC(C)(C)C)[C@@H]1O ... -1

## Task Assay outcome for `O=C1c2cccc3cccc(c23)C(=O)N1CCCNOCCONCCCN1C(=O)c2cccc3cccc(c23)C1=O` : what was it?
## Result -1

## Task Assay outcome for `CCOC(=O)Cc1nc(/C(C#N)=C/c2ccco2)[nH]c(=O)c1C#N` : what was it?
## Result -1

## Task Assay outcome for `CCCCCCN(CCCCCC)C(=S)N/N=C(\C)c1ccccn1` : what was it?
## Result 1

## Task Assay outcome for `Brc1ccc2nc(-c3cccs3)nc(N3CCN(c4ccccc4)CC3)c2c1` : what was it?
## Result -1

## Task Assay outcome for COc1ccc(CC/N=C2\CCC(C(=O)NCCc3ccc(OC)c(OC)c3)N2)cc1OC (configuration not stated) : what was it?
## Result -1

## Task Assay outcome for `C=CCN1/C(=C2\SC(=S)N(c3ccc(C)cc3)C2=O)Sc2c1ncn(C)c2=O` : what was it?
## Result -1

## Task Assay outcome for `CCOC(=O)c1c(N2CCCC2)nsc1Nc1ccccc1` : what was it?
## Result -1

----------
# System: SW-620
# protocolNotes: NCI tumour cell line growth inhibition, 48 h
The source made the active and inactive calls. No stated cut-off is given here; in the data, active = GI50 up to about 1.1 µM and inactive = higher.
Write down the outcome that applies. Available outcomes: active, inactive

## Task Assay outcome for CN1C(=O)CN2C(Cl)(Cl)C2(c2ccccc2)c2cc(Cl)ccc21 (centres undefined) : what was it?
## Result inactive

## Task Assay outcome for `Cc1ccc(-n2cc(-c3ccc(Cl)cc3)c3c(NN)ncnc32)cc1` : what was it?
## Result inactive

## Task Assay outcome for `O=C(NCCc1ccc(F)cc1)c1cc(/C=C/c2cc(O)ccc2O)ccc1O` : what was it?
## Result inactive

## Task Assay outcome for `CC(C)(C)NC(=S)N/N=C/c1ccccn1` : what was it?
## Result active

## Task Assay outcome for `COc1ccc(C(=O)N/N=C/c2c(C)n(C)n(-c3ccccc3)c2=O)cc1` : what was it?
## Result inactive

----------
# Tested on: SN12C
# protocolNotes: NCI tumour cell line growth inhibition, 48 h
Activity calls are given as the source filed them. Cut-off read from the data, not from the text of the source: active = GI50 up to about 1.1 µM and inactive = higher.
recordedEndpoint: GI50

O=C1c2cccc3cccc(c23)C(=O)N1CCCNCCCNCCCCNCCCNCCCN1C(=O)c2cccc3cccc(c23)C1=O ... 3.44 µM (inactive)

Please supply GI50 for each of the following items, keeping them in order.
1. O=C(Nc1ccccc1[N+](=O)[O-])C(=O)C(C(=O)c1ccccc1-c1ccccc1)C1OC(=O)c2ccccc21 (stereo unspecified)
2. CC(NC(=O)/C(C#N)=C/c1ccc2[nH]ccc2c1)c1ccccc1 (stereo unspecified)
3. Cc1ccc([N+](=O)[O-])c2c(NCCC[N+](C)(C)[O-])c3ccccc3nc12
4. CC(C)OC(=O)NNc1cccc(Cl)c1
5. O=C1Nc2ccccc2Nc2ccncc21

## Result
1. 14.6 µM (inactive)
2. 18.7 µM (inactive)
3. 2.19 µM (inactive)
4. > 100 µM (inactive)
5. > 31.6 µM (inactive)

----------
# Test system: DMS-273
# protocolNotes: NCI tumour cell line growth inhibition, 48 h
Activity calls are given as the source filed them. Cut-off read from the data, not from the text of the source: active = GI50 up to about 1.1 µM and inactive = higher.
recordedEndpoint: GI50

Here's what some known entries look like.
O=c1[nH]c2ccccc2cc1C(Cl)=C(Cl)Cl ... > 100 µM (inactive)
S=c1sc2cscc2s1 ... 31.1 µM (inactive)
CC(=O)OCC1OC(n2cc(F)c(=O)[nH]c2=O)C(N)C(OC(C)=O)C1OC(C)=O (configuration not stated) ... > 100 µM (inactive)
CCN(CC)C(c1ccc(N(C)C)cc1)C(c1ccc(N(C)C)cc1)N(CC)CC (configuration not stated) ... 44.8 µM (inactive)
COc1cc2c(c(O)c1C)C(=O)C(Cl)=CC2=O ... 19.2 µM (inactive)
C=CCN1/C(=C2\SC(=S)N(c3ccc(C)cc3)C2=O)Sc2c1ncn(C)c2=O ... > 100 µM (inactive)
CN(C)C(=S)/N=c1\ssc(=S)n1Cc1ccccn1 ... 1.64 µM (inactive)
O=C1c2cccc([N+](=O)[O-])c2C(=O)c2nccnc21 ... 3.5 µM (inactive)

Please supply GI50 for each of the following items, keeping them in order.
1. CCC1=CCC(P(=O)(c2ccccc2)c2ccccc2)CC1C (configuration not stated)
2. C=Nc1ccc([N+](=O)[O-])cc1

## Result
["36.3 µM (inactive)", "> 100 µM (inactive)"]

----------
# Test system: SF-268
# protocolNotes: NCI tumour cell line growth inhibition, 48 h
The source made the active and inactive calls. No stated cut-off is given here; in the data, active = GI50 up to about 1.1 µM and inactive = higher.
recordedEndpoint: GI50

O=[N+]([O-])c1cc(Cl)cc2c1nc(NCCO)c1ccccc12 ... 23.8 µM (inactive)
S=c1sc2cscc2s1 ... 31.4 µM (inactive)
Nc1nc(N)c(CCCCc2ccccc2)c(N)n1 ... > 100 µM (inactive)
c1csc(-c2ccc(-c3cccs3)c3nsnc23)c1 ... 33.7 µM (inactive)
CCCCCCCCCCCCCCCC/C(C(=O)OC)=C(/O)C(=O)OCC ... > 100 µM (inactive)
COC(=O)[C@@H]1C[C@H](c2ccc(OC)c(OC)c2)OC1=O.COC(=O)[C@H]1C[C@H](c2ccc(OC)c(OC)c2)OC1=O ... > 100 µM (inactive)
S=c1nc(Nc2ccc(Br)cc2)c2c3c(sc2[nH]1)CN(N1CCc2c(sc4[nH]c(=S)nc(Nc5ccc(Br)cc5)c24)C1)CC3 ... 33.7 µM (inactive)
Cc1ccccc1Nc1cn(COCc2ccccc2)c(=O)[nH]c1=O ... 70.6 µM (inactive)

Please supply GI50 for each of the following items, keeping them in order.
1. O=c1[nH]c2c(c(=O)[nH]1)SC(c1ccccc1)C2 (configuration not stated)
2. CCOC(=O)N1CCc2cc(OC)c(OC)c3c2c1cc1cc(OC)c(OC)cc13
3. CN(C)CCNc1ccc2nnn3c4ccc(Cl)cc4c(=O)c1c23

## Result
1: > 100 µM (inactive); 2: 4.51 µM (inactive); 3: 3.4 µM (inactive)

----------
# Test system: OVCAR-5
# protocolNotes: NCI tumour cell line growth inhibition, 48 h
Activity calls are given as the source filed them. Cut-off read from the data, not from the text of the source: active = GI50 up to about 1.1 µM and inactive = higher.
Please respond with reported GI50 for every item in the list.

Clc1ccc(CCc2ccncn2)c(Cl)c1 ... > 100 µM (inactive)
CC1=NN(C(=O)c2ccc(Cl)cc2)C(=O)C1/N=N/c1ccc(S(=O)(=O)Nc2ncccn2)cc1 (stereo not given) ... > 100 µM (inactive)
COc1ccc([C@H]2C=C(c3cc(F)c(Cl)cc3Cl)N=c3s/c(=C\c4ccc(-c5ccc(Cl)cc5Cl)o4)c(=O)n32)cc1 ... 39.4 µM (inactive)
C1#Cc2ccccc2OCCOc2ccccc2C#Cc2ccccc2OCCOc2ccccc21 ... 24 µM (inactive)

Attention now turns to another entry.
## Task OVCAR-5 / GI50 / CCOC(=O)C1=C(C)N(c2ccc(C)cc2)C2(O)C=CC(O)=C3C(=O)c4ccccc4C(=O)C312 (stereo not given) : value?
## Result 54.2 µM (inactive)
